Molecular target: MAP2K3 Dual specificity mitogen-activated protein kinase (Homo sapiens, UniProt P46734)
Construct: isoTOP-ABPP experiments performed in cell lysates (in vitro); endogenous in cells; host or cells: soluble proteome of human cancer cell lines (MDA-MB-231; Ramos and Jurkat also prepared)
Sequence (P46734 whole entry, the tested form may be a part): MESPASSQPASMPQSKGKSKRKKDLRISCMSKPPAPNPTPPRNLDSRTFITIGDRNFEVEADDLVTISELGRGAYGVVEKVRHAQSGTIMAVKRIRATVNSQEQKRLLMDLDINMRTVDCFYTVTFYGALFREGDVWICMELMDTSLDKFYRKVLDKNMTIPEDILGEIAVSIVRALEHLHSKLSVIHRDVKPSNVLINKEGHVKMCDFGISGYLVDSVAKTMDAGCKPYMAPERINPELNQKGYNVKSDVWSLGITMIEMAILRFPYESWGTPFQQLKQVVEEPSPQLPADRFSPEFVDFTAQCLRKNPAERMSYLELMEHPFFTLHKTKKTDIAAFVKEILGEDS
Assay: competitive isoTOP-ABPP
Type: binding
Conditions: 50 uM, in vitro, sol, 231
Protocol: In vitro covalent fragment treatment for isoTOP-ABPP. All compounds were made up as solutions in DMSO (100×) and were used at a final concentration of 50 μM for activated esters and 100 μM for guanidinylating agents. […] R value calculation and processing. The ratios of light and heavy MS1 peaks for each unique peptide were quantified with a CIMAGE software using default parameters (3 MS1 acquisitions per peak and signal to noise threshold set to 2.5). […]
Hi there, I'd appreciate the recorded isoTOP-ABPP ratio (R) at liganded lysine P46734_K93 for every entry that follows.

Challenge: GET isoTOP-ABPP ratio (R) at liganded lysine P46734_K93 | system: MAP2K3 Dual specificity mitogen-activated protein kinase (Homo sapiens, UniProt P46734) | item: CC(=O)Oc1ccc([N+](=O)[O-])cc1[N+](=O)[O-] [fragment 43, 2,4-Dinitrophenyl acetate]
Response given: 1.0

Challenge: Report isoTOP-ABPP ratio (R) at liganded lysine P46734_K93 on MAP2K3 Dual specificity mitogen-activated protein kinase (Homo sapiens, UniProt P46734) for this entry: `O=C(CCc1coc2cc(F)ccc2c1=O)Oc1ccc([N+](=O)[O-])cc1[N+](=O)[O-]`
Response given: 0.9

Challenge: Return reported isoTOP-ABPP ratio (R) at liganded lysine P46734_K93 for target or system MAP2K3 Dual specificity mitogen-activated protein kinase (Homo sapiens, UniProt P46734), item `O=C(Oc1ccc([N+](=O)[O-])cc1[N+](=O)[O-])c1ccc2ccccc2n1` .
Response given: 1.0

Challenge: Under MAP2K3 Dual specificity mitogen-activated protein kinase (Homo sapiens, UniProt P46734), report isoTOP-ABPP ratio (R) at liganded lysine P46734_K93 for `O=C(CC12CC3CC(CC(C3)C1)C2)Oc1ccc([N+](=O)[O-])cc1[N+](=O)[O-]`
Response given: 0.9

Challenge: For MAP2K3 Dual specificity mitogen-activated protein kinase (Homo sapiens, UniProt P46734), give isoTOP-ABPP ratio (R) at liganded lysine P46734_K93 of the listed compound: `O=C(Oc1ccc([N+](=O)[O-])cc1[N+](=O)[O-])c1ccc(-c2ccccc2)cc1`
Response given: 0.7

Challenge: For MAP2K3 Dual specificity mitogen-activated protein kinase (Homo sapiens, UniProt P46734), give the measured isoTOP-ABPP ratio (R) at liganded lysine P46734_K93 of the entry O=C(Oc1ccc([N+](=O)[O-])cc1[N+](=O)[O-])c1ccc(Oc2ccccc2)cc1 [fragment 39, 2,4-Dinitrophenyl 4-phenoxybenzoate]
Response given: 0.8

* * *

For each entry below, report its R value (DMSO/fragment) for probe 1 labeling value.
Target: GLOD4 Glyoxalase domain-containing protein 4 (Homo sapiens, UniProt Q9HC38)
Construct: endogenous in cells; host or cells: MDA-MB-231 (soluble fraction of lysate)
Sequence (Q9HC38 whole entry, the tested form may be a part): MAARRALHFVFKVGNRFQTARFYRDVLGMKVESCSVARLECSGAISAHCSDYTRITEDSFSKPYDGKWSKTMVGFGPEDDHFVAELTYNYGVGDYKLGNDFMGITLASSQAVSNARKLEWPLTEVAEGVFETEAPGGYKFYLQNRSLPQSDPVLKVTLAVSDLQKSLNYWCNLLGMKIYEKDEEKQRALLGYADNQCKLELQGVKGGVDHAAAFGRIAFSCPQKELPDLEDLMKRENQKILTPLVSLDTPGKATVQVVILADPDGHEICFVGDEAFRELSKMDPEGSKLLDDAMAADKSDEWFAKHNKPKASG
Test: competitive isoTOP-ABPP
Format: binding
Conditions: Q9HC38_K305; 50 uM, 231 sol, in vitro
Would you mind answering with just the numeric figure?

Challenge: Name the recorded R value (DMSO/fragment) for probe 1 labeling of the molecule listed here: O=C(Oc1c(F)c(F)c(F)c(F)c1F)c1cc(C(F)(F)F)cc(C(F)(F)F)c1 [fragment 21]
Response given: 0.8

Challenge: Return reported R value (DMSO/fragment) for probe 1 labeling. Input molecule: COc1cc(CCC(=O)Oc2c(F)c(F)c(F)c(F)c2F)cc(OC)c1OC [fragment 23]
Response given: 0.9

Challenge: Tell me measured R value (DMSO/fragment) for probe 1 labeling for O=C(CCc1cn(-c2ccccc2)nc1-c1ccccc1)Oc1c(F)c(F)c(F)c(F)c1F [fragment 19] please.
Response given: 0.9

Challenge: Tell us which R value (DMSO/fragment) for probe 1 labeling value is on record for Cn1cc(CC(=O)Oc2c(F)c(F)c(F)c(F)c2F)c2ccccc21 [fragment 22]
Response given: 0.7

Challenge: Recall and state the measured R value (DMSO/fragment) for probe 1 labeling for O=C(Oc1c(F)c(F)c(F)c(F)c1F)C(c1ccccc1)c1ccccc1 [fragment 20, Pentafluorophenyl 2,2-diphenylacetate] .
Response given: 0.8

* * *

Molecular target: GOLGB1 Golgin subfamily B member 1 (Homo sapiens, UniProt Q14789)
Construct: isoTOP-ABPP experiments performed in cell lysates (in vitro); endogenous in cells; host or cells: soluble proteome of human cancer cell lines (MDA-MB-231, Ramos, Jurkat)
Sequence (Q14789 whole entry): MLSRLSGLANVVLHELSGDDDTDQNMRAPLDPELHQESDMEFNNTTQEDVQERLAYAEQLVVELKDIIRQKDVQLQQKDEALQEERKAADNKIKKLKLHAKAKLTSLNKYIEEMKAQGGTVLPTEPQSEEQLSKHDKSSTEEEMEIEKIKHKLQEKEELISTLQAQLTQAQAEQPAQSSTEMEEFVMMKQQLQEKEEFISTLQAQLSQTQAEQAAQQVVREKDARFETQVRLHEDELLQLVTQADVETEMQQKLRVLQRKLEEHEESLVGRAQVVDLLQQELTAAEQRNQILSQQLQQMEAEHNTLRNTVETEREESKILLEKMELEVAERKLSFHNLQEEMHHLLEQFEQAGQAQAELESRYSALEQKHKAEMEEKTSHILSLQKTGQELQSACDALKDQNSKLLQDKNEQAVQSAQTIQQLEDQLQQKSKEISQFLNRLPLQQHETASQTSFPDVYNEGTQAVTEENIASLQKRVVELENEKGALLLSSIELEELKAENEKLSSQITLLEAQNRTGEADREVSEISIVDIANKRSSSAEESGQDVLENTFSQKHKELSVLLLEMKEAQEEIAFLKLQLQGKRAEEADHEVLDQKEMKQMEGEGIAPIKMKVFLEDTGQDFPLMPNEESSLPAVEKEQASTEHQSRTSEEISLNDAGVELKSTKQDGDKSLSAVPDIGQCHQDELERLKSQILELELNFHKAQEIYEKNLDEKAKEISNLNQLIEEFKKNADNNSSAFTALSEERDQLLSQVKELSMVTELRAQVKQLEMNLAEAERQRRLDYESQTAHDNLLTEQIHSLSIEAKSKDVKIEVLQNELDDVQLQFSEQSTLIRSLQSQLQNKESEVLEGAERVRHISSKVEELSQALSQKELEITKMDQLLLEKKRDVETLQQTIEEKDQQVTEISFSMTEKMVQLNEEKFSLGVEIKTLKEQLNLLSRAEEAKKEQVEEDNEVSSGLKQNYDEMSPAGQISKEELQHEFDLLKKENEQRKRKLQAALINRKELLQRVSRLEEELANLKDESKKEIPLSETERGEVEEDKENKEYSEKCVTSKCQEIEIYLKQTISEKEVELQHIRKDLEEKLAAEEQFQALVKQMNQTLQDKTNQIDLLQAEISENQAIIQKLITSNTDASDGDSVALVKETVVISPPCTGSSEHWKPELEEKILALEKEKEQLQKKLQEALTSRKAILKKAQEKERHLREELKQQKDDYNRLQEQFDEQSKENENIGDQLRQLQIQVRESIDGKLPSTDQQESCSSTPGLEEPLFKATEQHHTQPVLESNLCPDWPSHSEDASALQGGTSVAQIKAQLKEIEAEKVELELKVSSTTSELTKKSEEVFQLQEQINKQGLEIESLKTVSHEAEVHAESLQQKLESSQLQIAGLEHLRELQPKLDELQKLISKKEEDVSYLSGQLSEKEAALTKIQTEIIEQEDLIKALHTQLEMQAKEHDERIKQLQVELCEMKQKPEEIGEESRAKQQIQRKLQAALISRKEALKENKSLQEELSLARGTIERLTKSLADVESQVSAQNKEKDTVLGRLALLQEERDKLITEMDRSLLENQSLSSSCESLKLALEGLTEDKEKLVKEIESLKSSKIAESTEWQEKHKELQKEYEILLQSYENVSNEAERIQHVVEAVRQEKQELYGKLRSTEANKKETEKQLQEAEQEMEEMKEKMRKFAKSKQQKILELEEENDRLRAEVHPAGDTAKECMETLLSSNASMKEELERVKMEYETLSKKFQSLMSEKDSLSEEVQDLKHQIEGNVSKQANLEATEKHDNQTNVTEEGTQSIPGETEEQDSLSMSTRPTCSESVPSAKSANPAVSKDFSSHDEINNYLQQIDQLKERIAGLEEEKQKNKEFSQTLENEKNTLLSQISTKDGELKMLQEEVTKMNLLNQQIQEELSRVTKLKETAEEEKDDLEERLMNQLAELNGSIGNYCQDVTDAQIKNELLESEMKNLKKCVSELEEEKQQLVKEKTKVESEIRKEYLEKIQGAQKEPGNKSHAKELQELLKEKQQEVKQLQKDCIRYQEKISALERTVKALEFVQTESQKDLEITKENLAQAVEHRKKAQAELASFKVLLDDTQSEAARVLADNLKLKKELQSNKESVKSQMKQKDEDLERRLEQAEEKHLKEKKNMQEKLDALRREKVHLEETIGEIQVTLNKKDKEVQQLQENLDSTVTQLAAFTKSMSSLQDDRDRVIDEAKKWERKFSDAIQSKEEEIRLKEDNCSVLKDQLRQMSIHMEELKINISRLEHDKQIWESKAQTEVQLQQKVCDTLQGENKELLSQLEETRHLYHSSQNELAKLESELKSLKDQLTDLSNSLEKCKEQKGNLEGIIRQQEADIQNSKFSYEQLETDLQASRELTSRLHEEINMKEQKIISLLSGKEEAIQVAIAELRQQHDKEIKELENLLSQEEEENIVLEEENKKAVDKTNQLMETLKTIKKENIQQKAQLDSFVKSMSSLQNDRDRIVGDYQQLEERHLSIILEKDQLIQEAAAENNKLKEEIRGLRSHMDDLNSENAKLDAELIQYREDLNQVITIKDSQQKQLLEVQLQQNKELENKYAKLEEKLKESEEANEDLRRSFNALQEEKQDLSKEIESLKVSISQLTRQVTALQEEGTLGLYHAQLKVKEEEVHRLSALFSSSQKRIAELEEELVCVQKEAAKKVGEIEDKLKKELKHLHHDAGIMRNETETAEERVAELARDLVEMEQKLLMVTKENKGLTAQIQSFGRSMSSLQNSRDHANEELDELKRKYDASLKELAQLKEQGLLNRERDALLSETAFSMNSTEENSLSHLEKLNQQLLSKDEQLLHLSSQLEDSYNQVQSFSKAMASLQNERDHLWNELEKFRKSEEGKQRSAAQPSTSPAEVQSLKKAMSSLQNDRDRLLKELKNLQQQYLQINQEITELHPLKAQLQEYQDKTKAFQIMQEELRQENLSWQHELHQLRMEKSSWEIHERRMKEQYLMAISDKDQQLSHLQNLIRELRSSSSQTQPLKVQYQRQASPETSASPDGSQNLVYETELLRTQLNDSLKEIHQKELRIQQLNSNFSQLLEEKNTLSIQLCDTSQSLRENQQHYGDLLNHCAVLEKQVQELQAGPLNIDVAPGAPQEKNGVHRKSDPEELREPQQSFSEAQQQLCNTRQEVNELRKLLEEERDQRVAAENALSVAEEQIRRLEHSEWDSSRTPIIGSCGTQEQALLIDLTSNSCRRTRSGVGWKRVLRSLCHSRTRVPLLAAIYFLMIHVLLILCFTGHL
Experiment: competitive isoTOP-ABPP
Format: binding
Conditions: 50 uM, 231 sol, in vitro
Exercise: for every item that follows, state its recorded isoTOP-ABPP reactivity ratio at lysine Q14789_K103.
Enter the number alone.

Challenge: Report value: isoTOP-ABPP reactivity ratio at lysine Q14789_K103, system: GOLGB1 Golgin subfamily B member 1 (Homo sapiens, UniProt Q14789), compound: `O=C(CCc1coc2cc(F)ccc2c1=O)Oc1c(F)c(F)c(F)c(F)c1F`
Response given: 1.1

Challenge: Would you please give the reported isoTOP-ABPP reactivity ratio at lysine Q14789_K103 of `O=C(CN1C(=O)c2ccccc2C1=O)Oc1c(F)c(F)c(F)c(F)c1F` with GOLGB1 Golgin subfamily B member 1 (Homo sapiens, UniProt Q14789)?
Response given: 1.3

Challenge: Please report the measured isoTOP-ABPP reactivity ratio at lysine Q14789_K103 for `O=C(Oc1c(F)c(F)c(F)c(F)c1F)c1ccc2ccccc2n1` tested on GOLGB1 Golgin subfamily B member 1 (Homo sapiens, UniProt Q14789).
Response given: 1.0

Challenge: Give reported isoTOP-ABPP reactivity ratio at lysine Q14789_K103 for `O=C(CCc1cn(-c2ccccc2)nc1-c1ccccc1)Oc1ccc([N+](=O)[O-])cc1[N+](=O)[O-]` (GOLGB1 Golgin subfamily B member 1 (Homo sapiens, UniProt Q14789))
Response given: 1.1

Challenge: Write down measured isoTOP-ABPP reactivity ratio at lysine Q14789_K103 (GOLGB1 Golgin subfamily B member 1 (Homo sapiens, UniProt Q14789)) for this compound. `O=C(Oc1ccc([N+](=O)[O-])cc1[N+](=O)[O-])c1cc(C(F)(F)F)cc(C(F)(F)F)c1`
Response given: 0.9

Challenge: Supply isoTOP-ABPP reactivity ratio at lysine Q14789_K103 measured with GOLGB1 Golgin subfamily B member 1 (Homo sapiens, UniProt Q14789) for `CCn1cc(C(=O)Oc2c(F)c(F)c(F)c(F)c2F)c(=O)c2ccc(C)nc21` .
Response given: 0.9

* * *

Provide the recorded isoTOP-ABPP ratio (R) at liganded lysine P32969_K82 for the entries that follow.
Target: RPL9P9 60S ribosomal protein L9 (Homo sapiens, UniProt P32969)
Construct: isoTOP-ABPP experiments performed in cell lysates (in vitro); endogenous in cells; host or cells: soluble proteome of human cancer cell lines (MDA-MB-231; Ramos and Jurkat also prepared)
Assay: competitive isoTOP-ABPP
Format: binding
Conditions: 50 uM, in vitro, sol, 231

Challenge: Provide the reported isoTOP-ABPP ratio (R) at liganded lysine P32969_K82 (system: RPL9P9 60S ribosomal protein L9 (Homo sapiens, UniProt P32969)) for CC(=O)Oc1ccc([N+](=O)[O-])cc1[N+](=O)[O-] [fragment 43, 2,4-Dinitrophenyl acetate]
Response given: 0.9

Challenge: Provide RPL9P9 60S ribosomal protein L9 (Homo sapiens, UniProt P32969) isoTOP-ABPP ratio (R) at liganded lysine P32969_K82 reading for O=C(Oc1ccc([N+](=O)[O-])cc1[N+](=O)[O-])c1ccc(Oc2ccccc2)cc1 [fragment 39, 2,4-Dinitrophenyl 4-phenoxybenzoate] .
Response given: 0.7

Challenge: GET isoTOP-ABPP ratio (R) at liganded lysine P32969_K82 where system = RPL9P9 60S ribosomal protein L9 (Homo sapiens, UniProt P32969) and item = `O=C(Oc1ccc([N+](=O)[O-])cc1[N+](=O)[O-])c1ccc2ccccc2n1`
Response given: 0.8

Challenge: Would you please give the reported isoTOP-ABPP ratio (R) at liganded lysine P32969_K82 of `CC(C)(C)OC(=O)NCCCC(=O)Oc1ccc([N+](=O)[O-])cc1[N+](=O)[O-]` with RPL9P9 60S ribosomal protein L9 (Homo sapiens, UniProt P32969)?
Response given: 0.9

* * *

Target: NUDT2 Bis(5-nucleosyl)-tetraphosphatase (Homo sapiens)
Construct: isoTOP-ABPP experiments performed in cell lysates (in vitro); endogenous in cells
Sequence (P50583 whole entry): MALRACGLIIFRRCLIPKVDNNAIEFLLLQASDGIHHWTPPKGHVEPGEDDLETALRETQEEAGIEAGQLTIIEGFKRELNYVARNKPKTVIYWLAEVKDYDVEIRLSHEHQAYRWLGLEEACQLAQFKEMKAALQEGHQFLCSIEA
Assay: competitive isoTOP-ABPP
Assay type: binding
Details: 50 uM_231_sol_in vitro; possible other lysine P50583_K87
Procedure: In vitro covalent fragment treatment for isoTOP-ABPP. All compounds were made up as solutions in DMSO (100×) and were used at a final concentration of 50 μM for activated esters and 100 μM for guanidinylating agents. […] R value calculation and processing. The ratios of light and heavy MS1 peaks for each unique peptide were quantified with a CIMAGE software using default parameters (3 MS1 acquisitions per peak and signal to noise threshold set to 2.5). […]
observationType: isoTOP-ABPP ratio, lysine P50583_K89
Form rule: numeric answer, no unit written next to it.

Challenge: Output measured isoTOP-ABPP ratio, lysine P50583_K89 for this item: `O=C(Oc1c(F)c(F)cc(F)c1F)c1cc(C(F)(F)F)cc(C(F)(F)F)c1`
Response given: 1.0

Challenge: Answer with the recorded isoTOP-ABPP ratio, lysine P50583_K89 for the molecule listed here: NC(=O)c1cc(C(F)(F)F)cc(C(F)(F)F)c1 [fragment 51, reference compound]
Response given: 0.9

Challenge: Dear colleague, please send me the reported isoTOP-ABPP ratio, lysine P50583_K89 for `O=C(CCc1ccc2c(c1)OCO2)Oc1ccc([N+](=O)[O-])cc1[N+](=O)[O-]` when you can.
Response given: 1.7

Challenge: Provide only the value of recorded isoTOP-ABPP ratio, lysine P50583_K89 for `O=C(Oc1c(F)c(F)c(C(F)(F)F)c(F)c1F)c1cc(C(F)(F)F)cc(C(F)(F)F)c1`
Response given: 1.0

Challenge: Quickly give me recorded isoTOP-ABPP ratio, lysine P50583_K89 for `O=C(ON1C(=O)CCC1=O)c1cc(C(F)(F)F)cc(C(F)(F)F)c1`
Response given: 1.1

Challenge: Query isoTOP-ABPP ratio, lysine P50583_K89 for N#Cc1ccc(C(=O)Oc2ccc([N+](=O)[O-])cc2[N+](=O)[O-])cc1 [fragment 44, 2,4-Dinitrophenyl 4-cyanobenzoate]
Response given: 0.9
